# safe dose values compiled below
Test system: Swiss albino mice
measurement_context: both, mouse, in vivo, po, 15 days

{"compound": "CCOC(=O)C1CCC(=O)N1C(OC(C)=O)C(C)=O (centres unmarked)", "unit_of_measure": "mg", "safe dose": 100}
{"compound": "CCOC(=O)C1CCC(=O)N1C(O)C(C)=O (centres unmarked)", "unit_of_measure": "mg", "safe dose": 100}
{"compound": "CC(=O)OC(C(C)=O)N1C(=O)CCC1C(=O)OCc1ccccc1 (centres unmarked)", "unit_of_measure": "mg", "safe dose": 75}
{"compound": "CCCCOC(=O)C1CCC(=O)N1C(O)C(C)=O (centres unmarked)", "unit_of_measure": "mg", "safe dose": 75}
{"compound": "COC(=O)C1CCC(=O)N1C(OC(C)=O)C(C)=O (centres unmarked)", "unit_of_measure": "mg", "safe dose": 100}

###

# cytotoxicity at 10000 µM values compiled below
Test system: MCF7
experimental_protocol: MTT cytotoxicity assay, MCF7 breast
Assay type: cell-based
measurement_context: Homo sapiens; MCF7 breast, 10 mM; read-out: Percent cytotoxicity

{"compound": "CC(=O)OC(C(C)=O)N1C(=O)CCC1C(=O)OCc1ccccc1 (stereo not shown)", "unit_of_measure": "%", "cytotoxicity at 10000 µM": 23.9}
{"compound": "CC(=O)C(O)N1C(=O)CCC1C(=O)OCc1ccccc1 (stereo not shown)", "unit_of_measure": "%", "cytotoxicity at 10000 µM": 12.4}
{"compound": "COC(=O)C1CCC(=O)N1C(OC(C)=O)C(C)=O (stereo not shown)", "unit_of_measure": "%", "cytotoxicity at 10000 µM": 31.9}
{"compound": "CCCCOC(=O)C1CCC(=O)N1C(OC(C)=O)C(C)=O (stereo not shown)", "unit_of_measure": "%", "cytotoxicity at 10000 µM": 58.7}
{"compound": "CCOC(=O)C1CCC(=O)N1C(OC(C)=O)C(C)=O (stereo not shown)", "unit_of_measure": "%", "cytotoxicity at 10000 µM": 87}
{"compound": "CCCCOC(=O)C1CCC(=O)N1C(O)C(C)=O (stereo not shown)", "unit_of_measure": "%", "cytotoxicity at 10000 µM": 78.9}
{"compound": "CCOC(=O)C1CCC(=O)N1C(O)C(C)=O (stereo not shown)", "unit_of_measure": "%", "cytotoxicity at 10000 µM": 83}
